Can you tell me MIC for the items I'm about to list?
Test system: Staphylococcus aureus
Experiment: Antibacterial activity against Staphylococcus aureus ATCC 6538 after 18 hrs by serial agar dilution method
Type: functional
Settings: ATCC 6538, 18 h
Numbers only, in µg/mL.

Answered cases to consult:
# Test Smiles, Target Or Test System, Readout Type, Experimental Result
measured = [
    ("CC[C@@]1([C@@H]2O[C@@H]([C@H]3O[C@@](O)(CO)[C@H](C)C[C@@H]3C)C[C@@H]2C)CC[C@H]([C@]2(C)CC[C@]3(C[C@H](O)[C@@H](C)[C@@H]([C@@H](C)[C@@H](OC)[C@H](C)C(=O)OCCOCCOCCOC)O3)O2)O1", "Staphylococcus aureus", "MIC", 100),
    ("CC[C@@]1([C@@H]2O[C@@H]([C@H]3O[C@@](O)(CO)[C@H](C)C[C@@H]3C)C[C@@H]2C)CC[C@H]([C@]2(C)CC[C@]3(C[C@H](O)[C@@H](C)[C@@H]([C@@H](C)[C@@H](OC)[C@H](C)C(=O)OCCN4CCOCC4)O3)O2)O1", "Staphylococcus aureus", "MIC", 12.5),
    ("CC[C@@]1([C@@H]2O[C@@H]([C@H]3O[C@@](O)(CO)[C@H](C)C[C@@H]3C)C[C@@H]2C)CC[C@H]([C@]2(C)CC[C@]3(C[C@H](O)[C@@H](C)[C@@H]([C@@H](C)[C@@H](OC)[C@H](C)C(=O)O)O3)O2)O1", "Staphylococcus aureus", "MIC", 2),
]

Next molecule, please.
// recorded MIC for C=CCOC(=O)[C@@H](C)[C@H](OC)[C@H](C)[C@H]1O[C@@]2(CC[C@@](C)([C@H]3CC[C@@](CC)([C@@H]4O[C@@H]([C@H]5O[C@@](O)(CO)[C@H](C)C[C@@H]5C)C[C@@H]4C)O3)O2)C[C@H](O)[C@H]1C : 100

Ref: ChEMBL document CHEMBL1144800
